method_description: Lipophilicity, logP of compound
Type: physicochemical
measurement_parameters: octanol/water
endpoint_name: logP

Please review the following examples before continuing.
INSERT INTO measurements (molecule, measured_number) VALUES
  ('CC#CCOc1ccc(C(=O)N[C@H](C(=O)NO)C(C)(C)N)cc1', 0.44),
  ('C#CC[C@H](NC(=O)c1ccc(-c2ccccc2)cc1)C(=O)NO', 2.28),
  ('C#CC[C@H](NC(=O)c1ccc(OCC#CC)cc1)C(=O)NO', 1.29),
  ('N[C@@H](Cc1cn(C[C@H]2O[C@@H](n3ccc(=O)[nH]c3=O)[C@H](O)[C@@H]2O)nn1)C(=O)NO', -3.52),
  ('CC#CCOc1ccc(C(=O)N[C@@H](Cc2cn(C[C@H]3O[C@@H](n4ccc(=O)[nH]c4=O)[C@H](O)[C@@H]3O)nn2)C(=O)NO)cc1', -1.69);

A: O=C(N[C@@H](Cc1cn(C[C@H]2O[C@@H](n3ccc(=O)[nH]c3=O)[C@H](O)[C@@H]2O)nn1)C(=O)NO)c1ccc(-c2ccccc2)cc1
B: C#CC[C@H](NC(=O)c1ccccc1)C(=O)NO
Hi there! Just curious which has the higher logP between A and B . Label of pick, please.
B
(B: 0.61, A: -0.01)
